# System: PSMA-positive 22rv1 tumor-bearing mouse
# assay.method.text: 177Lu labeling and animal biodistribution experiment, gamma counter
# Assay type: in vivo
# study.conditions: 177Lu-labeled compound, 24 h after tail vein injection, n = 2
# Experimental: Distribution in PSMA-positive tumor-bearing mouse tissues: Tumor-bearing animals (purchased from Shanghai Alamo Pharmaceutical Technology Co., Ltd.) were subcutaneously inoculated with 3×10^6 22rv1 cells (in 50% Matrigel, Corning) into the right shoulder region of 6-9 week old (Balb/c Nude) mouse. […] Blood was collected through the abdominal aorta and 100 μL was immediately quantified into designated centrifuge tubes (weighed). […] Samples were measured on the day of collection. […]
Lab note: compare Liver uptake against 2 % ID/g. Equal or greater, write Satisfied. Smaller, write Not satisfied.

Check if Liver uptake >= 2 % ID/g (inclusive). Item: `O=C(O)CC[C@H](NC(=O)N[C@@H](CCCCNC(=O)[C@H](Cc1ccc2ccccc2c1)NC(=O)c1ccc2c(c1)CCN(C(=O)CCC(=O)NCCCC[C@H](NC(=O)CCC(=O)N1CCc3cc(C(=O)N[C@@H](Cc4ccc5ccccc5c4)C(=O)NCCCC[C@H](NC(=O)N[C@@H](CCC(=O)O)C(=O)O)C(=O)O)ccc3C1)C(=O)NCCNC(=O)CN1CCN(CC(=O)O)CCN(CC(=O)O)CCN(CC(=O)O)CC1)C2)C(=O)O)C(=O)O` Not satisfied

Reported Liver uptake reaches at least 2 % ID/g for O=C(O)CC[C@H](NC(=O)NC(CCCCNC(=O)[C@H](Cc1ccc2ccccc2c1)NC(=O)c1ccc2c(c1)CCN(C(=O)CNC(=O)c1cc(NC(=O)CNC(=O)CN3CCN(CC(=O)O)CCN(CC(=O)O)CCN(CC(=O)O)CC3)cc(C(=O)NCC(=O)N3CCc4cc(C(=O)N[C@@H](Cc5ccc6ccccc6c5)C(=O)NCCCC[C@H](NC(=O)N[C@@H](CCC(=O)O)C(=O)O)C(=O)O)ccc4C3)c1)C2)C(=O)O)C(=O)O (some centres unmarked) ? Satisfied

Quick check: does `O=C(O)CC[C@H](NC(=O)N[C@@H](CCCCNC(=O)[C@H](Cc1ccc2ccccc2c1)NC(=O)c1ccc(C2CCN(C(=O)CCC(=O)NCC(=O)N3CN(C(=O)CNC(=O)CCC(=O)N4CCC(c5ccc(C(=O)N[C@@H](Cc6ccc7ccccc7c6)C(=O)NCCCC[C@H](NC(=O)N[C@@H](CCC(=O)O)C(=O)O)C(=O)O)cc5)CC4)CN(C(=O)CNC(=O)CN4CCN(CC(=O)O)CCN(CC(=O)O)CCN(CC(=O)O)CC4)C3)CC2)cc1)C(=O)O)C(=O)O` have Liver uptake greater than or equal to 2 % ID/g? Not satisfied

Check this compound for Liver uptake at or above 2 % ID/g: O=C(O)CC[C@H](NC(=O)NC(CCCCNC(=O)[C@H](Cc1ccc2ccccc2c1)NC(=O)[C@H]1CC[C@H](NC(=O)CCC(=O)NCC(=O)N2CN(C(=O)CNC(=O)CCC(=O)N[C@H]3CC[C@H](C(=O)N[C@@H](Cc4ccc5ccccc5c4)C(=O)NCCCC[C@H](NC(=O)N[C@@H](CCC(=O)O)C(=O)O)C(=O)O)CC3)CN(C(=O)CNC(=O)CN3CCN(CC(=O)O)CCN(CC(=O)O)CCN(CC(=O)O)CC3)C2)CC1)C(=O)O)C(=O)O (some centres unmarked) Not satisfied

Reported Liver uptake reaches at least 2 % ID/g for O=C(O)CC[C@H](NC(=O)NC(CCCCNC(=O)[C@H](Cc1ccc2ccccc2c1)NC(=O)[C@H]1CC[C@H](NC(=O)COCCOCCNC(=O)c2cc(NC(=O)CCCCCCCNC(=O)CN3CCN(CC(=O)O)CCN(CC(=O)O)CCN(CC(=O)O)CC3)cc(C(=O)NCCOCCOCC(=O)N[C@H]3CC[C@H](C(=O)N[C@@H](Cc4ccc5ccccc5c4)C(=O)NCCCC[C@H](NC(=O)N[C@@H](CCC(=O)O)C(=O)O)C(=O)O)CC3)c2)CC1)C(=O)O)C(=O)O (some centres unmarked) ? Not satisfied
